Exercise: for every item that follows, state its recorded apparent KD of MS2 coat protein.
system: MS2 coat protein; experiment: apparent KD of MS2 coat protein; designed switch direction (-1 OFF switch, 1 ON switch): -1; higher = weaker reporter binding; conditions: input ligand: FMN 200 uM
Note: a bare number is incomplete; add the unit.

Previously resolved entries follow.
Given CUCAGGGUGCAGGAUAUCAUGGGAUAUCCCACCUGAGAAGGGCGAACAUGAGGAUCACCCAUGUGAGUGGGAGA [Eternabot (L2) Solution 85] (Eterna round: R97, puzzle: Exclusion 6) , state its recorded apparent KD of MS2 coat protein.
488 nM

What value of apparent KD of MS2 coat protein has been recorded for this entry: ACCUCACAUGAGGAUCACCCAUGUCAGGAUAUAAUUUCAAACAUCAAUCGCGGCGCUGAGAGAAGGGUCAAAAC (Eterna round: R97, puzzle: Exclusion 1)
15.7 nM

Consider the additional sequence presented here.
So what does the record say about apparent KD of MS2 coat protein for CUGAGCAGACGGAGAUCCAACAUGAGGAUCACCCAUGUCUCAGAAGCUUUUUGCUCGUCUUAUCCUCCUCUGUUCAC [Elimod 21 - Jieux - Sensor, turn-off variant 1] (Eterna round: R97, puzzle: Sensor, turn-off variant 1) ?
103 nM

FYI, the data here is from the supplement of paper PMC9170038.
